I'd appreciate it if you could supply EC50 values for the items below.
Test target: T1, T4 (Tn-MUC1) (PAPGSTAPPAHGVT(α-GalNAc)SAPDTRPAPG-OH)
T1 peptide: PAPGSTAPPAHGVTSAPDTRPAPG
Protocol details: glycopeptide array
Answer with a number only, understood to be in µg/mL.

QUERY: What does the data say about its EC50? Entry: 134 (antibody, V domains shown) VH: QVQLVQSGAEVKKPGASVEVSCKASGYTFINYYIHWVRQAPGQGLEWMGVINPFDGSTNYAQKFQGRVTVTRDTSTSTVFLDLSSLRPEDTAVYYCARDSMIGYVLFDYWGQGTLVTVSS
RESULT: 0.11

QUERY: What does the data say about its EC50? Entry: 70 (antibody, V domains shown) VH: QVQLVQSGAEVKKPGASVKVSCKASGYAFPNYYIHWVRQAPGQGLEWMGVINPYGGSTNYAQKFQGRVTMTRGTSTSTVYLELSSLRSEDTAVYYCARDAMKGDSFFDYWGQGTLVTVSS
RESULT: 0.127

QUERY: What does the data say about its EC50? Entry: 106 (antibody, V domains shown) VH: QVQLVQSGAEMKKPGASVKISCKASGYTFTNYYIQWVRQAPGQGLEWMGVINPYDGSTNYAQRFQGRVTLTRDTSTTTVYMELSSLRSEDTAVYYCARDYMIGYVVFDFWGQGTLVTVSS
RESULT: 0.037
